- assay-target: T1, human tissue factor on cells (human, UniProt P13726 33-295)
- T1 construct: cell-surface TF, transfected (HEK293T-humanTF) or endogenous (tumour lines, keratinocytes); the cell line is named under assay; also called HEK293T-humanTF; TF on BxPC3, primary human keratinocytes, NCI-H292, HCC1954, NCI-H1975
- T1 sequence (P13726 33-295 limits assumed): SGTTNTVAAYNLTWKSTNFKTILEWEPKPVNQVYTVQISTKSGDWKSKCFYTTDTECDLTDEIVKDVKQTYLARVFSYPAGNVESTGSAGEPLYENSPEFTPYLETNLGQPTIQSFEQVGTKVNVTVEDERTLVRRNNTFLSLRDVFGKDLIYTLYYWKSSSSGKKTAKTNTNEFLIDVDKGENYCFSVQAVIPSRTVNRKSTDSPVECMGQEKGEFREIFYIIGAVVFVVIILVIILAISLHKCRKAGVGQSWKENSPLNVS
- test: flow cytometry on BxPC3 cells (TF positive), one-site fit of MFI
binders and their reported Bmax (MFI)
Could you give me the number in MFI? Just the number is fine.

Worked examples, 3 binders total:
binder	property-name	observed-result
SRP2901-F01 (antibody, V domains shown, humanized rabbit antibody, variable regions fused to human IGHG1 and IGKC; also called 2842-B01 HC1/LC3) VH: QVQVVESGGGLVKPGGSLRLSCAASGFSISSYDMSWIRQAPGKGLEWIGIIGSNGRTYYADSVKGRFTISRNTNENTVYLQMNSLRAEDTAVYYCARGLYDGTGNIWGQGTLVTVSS VL: DIQMTQSPSSLSASVGDRVTITCQASQSVYGNNWLSWYQQKPGKAPKLLIYGASKLASGVPSRFSGSGSGTDFTLTISSLQPEDFATYYCQGTYYSGDWYFAFGGGTKVEIK	Bmax (MFI)	25400
SRP2901-E03 (antibody, V domains shown, humanized rabbit antibody, variable regions fused to human IGHG1 and IGKC; also called 2842-B01 HC3/LC2) VH: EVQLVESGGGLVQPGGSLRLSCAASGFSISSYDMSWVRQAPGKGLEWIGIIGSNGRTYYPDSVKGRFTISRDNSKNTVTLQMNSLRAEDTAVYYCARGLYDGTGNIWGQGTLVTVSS VL: ELVMTQSPPTLSLSPGERVTLSCRASQSVYGNNWLSWYQQKPGQAPRLLIYGASKLATSIPARFSGSGSGTQFTLTISSLQPEDFAVYYCQGTYYSGDWYFAFGQGTKVEIK	Bmax (MFI)	35200
SRP2901-B05 (antibody, V domains shown, humanized rabbit antibody, variable regions fused to human IGHG1 and IGKC; also called 2842-G04 HC2/LC2) VH: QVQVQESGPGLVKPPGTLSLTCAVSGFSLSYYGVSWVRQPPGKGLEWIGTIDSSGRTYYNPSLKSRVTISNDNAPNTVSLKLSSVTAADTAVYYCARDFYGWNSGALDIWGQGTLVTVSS VL: DLQLTQSPSTLSASVGDRVTITCRASQSVYSNKYLSWYQQKPGKAPKLLIYKASTLASGVPSRFSGSGSGTEFTLTISSLQPDDFATYYCAAAYSDDSDTAFGQGTKVEIK	Bmax (MFI)	42800

Here is the next item to consider.
Request: Read the entry SRP2901-D03 (antibody, V domains shown, humanized rabbit antibody, variable regions fused to human IGHG1 and IGKC; also called 2842-B01 HC3/LC1) VH: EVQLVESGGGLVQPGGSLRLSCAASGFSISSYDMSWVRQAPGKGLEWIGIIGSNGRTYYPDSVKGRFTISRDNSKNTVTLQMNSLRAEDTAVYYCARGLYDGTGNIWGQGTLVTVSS VL: DLQMTQSPSSLSASVGDRVTITCRASQSVYGNNWLSWYQQKPGKAPKLLIYGASKLASGVPSRFSGSGSGTQFTLTISSLQPEDFATYYCQGTYYSGDWYFAFGQGTKVEIK and write its reported Bmax (MFI).
Response: 29100
